- TARGET OR SYSTEM: Leucine aminopeptidase (Plasmodium falciparum (isolate 3D7))
- TEST DETAILS: P. falciparum M17LAP inhibitors, primary screen, biochemical, fluorogenic H-Leu-NHMec substrate, 1536-well (AID 1619);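 further: plate controls were full reaction with DMSO carrier for no effect and no enzyme background for full effect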
- CONDITIONS USED: recombinant M17LAP, H-Leu-NHMec fluorogenic kinetic assay; at 30 µM; hits give high values
Out of some 220,000 compounds screened, about 830 (0.38%) were called active. A selection follows. Potency and affinity values are given separately.
METRIC: inhibition (%)

• COc1ccccc1Nc1ncnc2nc[nH]c12 = 38.3
• O=C(CSc1nc(-c2ccccc2)c(-c2ccccc2)o1)Nc1nnc(-c2ccccc2)s1 = 5.34
• O=C(c1ccc(CN2CCOCC2)cc1)N1CCN(c2ccccc2)CC1 = 3.18
• O=C(Nc1ccccc1N1CCCC1)c1ccc([N+](=O)[O-])cc1Cl = 9.68
• COC(=O)c1ccccc1NC(=O)c1ccccc1N(C)S(=O)(=O)c1ccccc1 = -2.99
• COc1cc(=O)n(C)c2c(O)cccc12 = 4.51
• O=C(CCC(=O)N1CCN(S(=O)(=O)c2ccc(Cl)cc2)CC1)Nc1ccc2ccccc2c1 = -4.1
• Cc1ccc(Nc2ncnc3nc[nH]c23)cc1Cl = 6.48
• COc1ccccc1-c1noc(-c2cccnc2)n1 = -3.7
• CC(C)NC(=O)/C(C#N)=C/c1ccc(N(C)C)o1 = 48.4
• Cc1ccc(C(=O)CC(C(=O)O)n2cnc([N+](=O)[O-])n2)cc1 (stereo unspecified) = 11.1

* * *

- TARGET OR SYSTEM: Leucine aminopeptidase (Plasmodium falciparum (isolate 3D7)) (UniProt Q8IL11)
- Sequence (Q8IL11 whole entry, looked up): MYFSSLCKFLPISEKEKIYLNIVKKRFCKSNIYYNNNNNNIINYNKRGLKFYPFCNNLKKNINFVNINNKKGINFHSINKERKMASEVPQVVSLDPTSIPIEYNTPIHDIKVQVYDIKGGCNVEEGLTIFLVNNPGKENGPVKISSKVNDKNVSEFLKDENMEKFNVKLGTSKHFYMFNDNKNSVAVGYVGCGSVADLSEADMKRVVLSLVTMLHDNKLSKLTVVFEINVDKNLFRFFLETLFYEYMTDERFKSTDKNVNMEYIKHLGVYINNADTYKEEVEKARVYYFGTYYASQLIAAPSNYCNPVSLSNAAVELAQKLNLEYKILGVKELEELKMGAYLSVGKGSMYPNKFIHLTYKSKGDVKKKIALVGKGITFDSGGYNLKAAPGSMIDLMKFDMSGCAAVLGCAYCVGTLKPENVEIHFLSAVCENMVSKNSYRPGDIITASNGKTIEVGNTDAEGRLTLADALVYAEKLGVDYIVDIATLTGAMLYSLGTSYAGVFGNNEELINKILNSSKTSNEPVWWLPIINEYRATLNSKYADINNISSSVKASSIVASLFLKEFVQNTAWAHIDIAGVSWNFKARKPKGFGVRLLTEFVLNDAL
- TEST DETAILS: P. falciparum M17LAP inhibitors, primary screen, biochemical, fluorogenic H-Leu-NHMec substrate, 1536-well (AID 1619);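 further: plate controls were full reaction with DMSO carrier for no effect and no enzyme background for full effect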
- CONDITIONS USED: recombinant M17LAP, H-Leu-NHMec fluorogenic kinetic assay; at 30 µM; hits give high values
Among all 220,000 compounds or so, about 830 (0.38%) were called active. These entries were drawn from the full list. Entries with a potency or affinity are not part of this list.
METRIC: inhibition (%)

* COc1ccc(S(=O)(=O)Nc2ccc3c(c2)OCCO3)cc1Cl | -0.34
* O=C(OCCN1CCOCC1)C(c1ccccc1)c1ccccc1 | -9.47
* O=C(CN(Cc1ccco1)S(=O)(=O)c1ccccc1)N/N=C/c1ccccc1C(=O)O | 38.3
* O=C(CSc1ccc(Cl)cc1)N1CCC(c2nc3ccccc3s2)CC1 | 1
* COc1cc(NC(=O)c2nccnc2N)cc(C(=O)Nc2cccc(C(F)(F)F)c2)c1 | -5.13
* CNC(=S)N1N=C(c2ccc(C)cc2)CC1c1ccc(Cl)cc1 (stereo unspecified) | 5.37

* * *

- TARGET OR SYSTEM: Leucine aminopeptidase (Plasmodium falciparum (isolate 3D7)) (UniProt Q8IL11)
- TEST DETAILS: P. falciparum M17LAP inhibitors, primary screen, biochemical, fluorogenic H-Leu-NHMec substrate, 1536-well (AID 1619);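 further: plate controls were full reaction with DMSO carrier for no effect and no enzyme background for full effect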
- CONDITIONS USED: recombinant M17LAP, H-Leu-NHMec fluorogenic kinetic assay; at 30 µM; hits give high values
The whole screen tested about 220,000 compounds, of which about 830 (0.38%) were called active. These entries were drawn from the full list. Potency and affinity values are given separately.
METRIC: inhibition (%)

* O=C(N/N=C/c1ccccc1C(=O)O)c1cc(-c2ccc3c4c(cccc24)CC3)n[nH]1 | 91.8
* O=C(NNC(=S)Nc1ccccc1)Nc1ccccc1 | 9.53
* Cc1cccc2cc(C(c3nnnn3CC3CCCO3)N3CCCc4ccccc43)c(=O)[nH]c12 (stereo unspecified) | 10.5
* Cc1ccc(NC(=O)NC(=O)CN2C(=O)NC3(CCCCCCC3)C2=O)c(C)c1 | 3.61
* Cc1ccc(NC(=O)Nc2cccs2)cc1 | 22.4
* CCOc1cccc(-c2cc(C(=O)NN)[nH]n2)c1 | 3.47
* CCCc1cc(C(=O)Nc2sc(C)c(CC)c2C#N)no1 | 3.41
* COc1ccc(NC(=O)C(CC(=O)O)C(C)c2ccccc2)cc1 (stereo unspecified) | -2.5
* COc1ccc(-c2[nH]n(-c3ccc([N+](=O)[O-])cc3)c(=O)c2C=NCc2ccncc2)cc1 | -8.57
* COc1ccc(NC(=O)Cc2ccccc2)cc1 | 34.6
* Cc1ccc(OCCCN2C(=O)C(=O)c3cccc(C)c32)cc1 | 13.8
* COC(=O)c1ccc(NC(=O)C2C3CCC(C3)C2C(=O)O)cc1 (stereo unspecified) | 39
* CCn1c(SCC(=O)C(C)(C)C)nnc1-c1ccccc1OC | 6.79
* Cc1cccc(Nc2nnc(C)c(=O)n2N)c1 | 8.38
* COc1ccc(N2C(=O)CC(SCCc3nc4ccccc4[nH]3)C2=O)cc1 (stereo unspecified) | 5.58
* Cc1nc2cc(NC(=O)Nc3ccc(Br)cc3)ccc2o1 | -1.6
* O=C(O)Cc1ccc(NC(=O)C2CC=CCC2C(=O)O)cc1 (stereo unspecified) | 11.1
* Cc1cc(NC(=O)CN2C(=O)NC3(CCCCCC3)C2=O)no1 | -1.33
* Cc1ccc(Cl)cc1NC(=O)N(C)CCO | -0.32
* COc1ccc(NC(=O)C(CC(=O)O)Cc2ccc(C)cc2)cc1 (stereo unspecified) | 53
* CC(=O)Nc1ccc(S(=O)(=O)Nc2nc3ccccc3nc2Sc2nncn2C)cc1 | -11.7
* S=C(Nc1ccccc1Cl)NC1CC2CCCC(C1)N2C1CC1 (stereo unspecified) | 19.9
* C=CCn1c(SCC(=O)c2ccc(OC)cc2)nnc1-c1cc2cccc(OC)c2o1 | 3.95
* COC(=O)CN(Cc1ccccc1)S(=O)(=O)c1ccc(OC)c(OC)c1 | -2.5
* C=CCn1c(-c2cccc(OCC)c2)n[nH]c1=S | -4.71
* COc1ccc(OC)c(NC(=O)C(CC(=O)O)Cc2ccc(Cl)cc2)c1 (stereo unspecified) | 35.7
* COc1ccc(CC(CC(=O)O)C(=O)NCc2ccccc2)cc1 (stereo unspecified) | -4.42
* Cc1ccc(NC(=O)CN(c2ccccc2)S(=O)(=O)N(C)C)cc1 | -5.3
* CCCc1nnc(SCc2ccc(OC)cc2)n1N | 9.43
* Cc1cc(C(F)F)n2nc(C(=O)Nc3ccccc3F)nc2n1 | 1.81
* Cc1oc(C)c(C(N)=O)c1C(N)=O | -4.4
* CCC(=O)c1ccc(-c2ccccc2)cc1 | -6.48
* CN(C(=O)c1ccc(NC(=O)C2CC=CCC2C(=O)O)cc1)c1ccccc1 (stereo unspecified) | 45.1
* CC(=O)Nc1ccc(NC(=O)[C@@H]2CCCC[C@@H]2C(=O)O)cc1 | -3.15
* O=C(CN1C(=O)S/C(=C\C=C\c2ccccc2)C1=O)Nc1ccc(C(=O)O)cc1 | 15.3
* Cc1cc(NC(=O)CSc2ncnc3c2cnn3-c2cccc(Cl)c2)no1 | 1.8
* Cc1ccc(NC(=O)CN2C(=O)NC3(CCC(C)CC3)C2=O)c(Cl)c1 (stereo unspecified) | 21
* Fc1ccc(/C=N/NC(=S)Nc2cccnc2)cc1F | 8.17
* CC1(C)Cc2c(c(N3CCOCC3)nc3sc4c(N5CCOCC5)nnnc4c23)CS1 | -1.05
* O=C(Nc1ccc(Oc2cccc3ccccc23)cc1)c1ccco1 | -4.51
* Cc1ccc(NC(=O)Nc2cccc(Cl)c2)c(C(=O)O)c1 | -7.94
* COc1ccc(C(CC(=O)Nc2ccc(F)cc2)c2ccccc2)cc1 (stereo unspecified) | -0.86
* CC(C)(C)c1ccc(/C=C2\Oc3cc(OC(=O)N4CCOCC4)ccc3C2=O)cc1 | -5.21
* O=C(O)[C@H]1CCCC[C@H]1C(=O)Nc1ccc(Nc2ccccc2)cc1 | 54.9
* CCn1c(SCC(=O)O)nnc1-c1ccccc1OC | -7.5
* O=C(CN1C(=O)S/C(=C\C=C\c2ccccc2)C1=O)Nc1ccc(O)cc1 | 9.74

Value source: PubChem BioAssay AID1619
